% Inhibition reference
Test system: human SMAD7 mRNA
Assay: Antisense inhibition of human SMAD7 mRNA expression in Hep3B cells by 3-10-3 cEt gapmers, 10,000 nM, electroporation (Example 2)
Assay type: cell-based
Settings: Hep3B cells, electroporation with 10,000 nM antisense oligonucleotide, approximately 24 hours, SMAD7 mRNA by RT-PCR (RTS5062), relative to untreated control cells
Strand notation (5' to 3'): a small letter for the sugar, then the base; units joined by * are phosphorothioate-linked, units joined directly phosphodiester-linked; [ ] holds rarer units or linkages, { } end groups; capitals alone tell only the bases. k = constrained ethyl (cEt); [5mC] = 5-methylcytosine; d = 2'-deoxy (DNA)
test-readout: % Inhibition

substance	test-system	result
799367 (antisense kA*kG*kT*d[5mC]*dT*d[5mC]*d[5mC]*dG*dA*dG*dT*dT*dA*kT*k[5mC]*k[5mC]) [compound 799367]	human SMAD7 mRNA	41%
799881 (kA*kA*kT*dA*dA*dA*dT*dT*d[5mC]*d[5mC]*dA*dA*dT*kG*k[5mC]*kA; antisense) [compound 799881]	human SMAD7 mRNA	0%
830057 (k[5mC]*kG*kT*dT*dT*dT*dG*dG*dG*dT*dG*dA*dG*kT*kA*kA; antisense) [compound 830057]	human SMAD7 mRNA	42%
799394 (antisense kA*k[5mC]*kA*dG*dA*dG*dA*dG*d[5mC]*dT*dG*dG*dG*kT*kA*kT) [compound 799394]	human SMAD7 mRNA	33%
800066 (antisense kT*kG*kT*dT*dT*dT*dA*dA*dG*dT*dA*dG*d[5mC]*kA*kG*k[5mC]) [compound 800066]	human SMAD7 mRNA	63%
772565 (antisense kA*kA*kT*dG*d[5mC]*d[5mC]*dT*dG*dA*dG*dA*dT*d[5mC]*k[5mC]*kG*kG) [compound 772565]	human SMAD7 mRNA	64%
